Tested on: K4 kissing-loop RNA reporter
Assay Info: apparent KD of K4 kissing-loop reporter; higher = weaker reporter binding
Measurement Parameters: Eterna round: R107; input ligand: none
Task for the reader: assign each of the following sequences its reported apparent KD of K4 kissing-loop reporter.

UAUAUAGUGACGGCCGCCACUAUAGUGAUGUUAUUGUUAGAGUGAUGUUUUGUUGUUUAAUUUUGUAGGACCGGGUUAUAUGUUA [tbbtmullin]	504 nM
AAAAUAAAUCAGUGAUGUUGGUAUCUGGAUACCAGCGAUAAUCAUCGCCCUUGGCAGCCAUGGACGUACAAAAUAAGUACGUCCU [MatMod 17 - Jieux - Same State - Theophylline A]	180 nM

Bench note: what apparent KD of K4 kissing-loop reporter did UGUGUUUACCUGACUCAGUGAUGUUGAGAAGGAGCGUGCGAACGCACAGGUAGGUCGCUCAACCUAAAUUCAGGUGAGCACUAAA show?
499 nM

---

Task for the reader: assign each of the following sequences its reported apparent KD of MS2 coat protein.
System: MS2 coat protein
Assay Info: apparent KD of MS2 coat protein; higher = weaker reporter binding
Measurement Parameters: Eterna round: R107; input ligand: theophylline 2 mM
Give bare numbers, in nM.

Answered cases to consult:
GGUUCAUCGUCGGCCGCCACUCACAUGAGGUGGAGCUGUAAACAUGAGGAUCACCCAUGUUGUUAGAGGACCGGGACGUGACGGC [theeternabot_exclusion_MS2_Trp_B_6]	42.1
AACGUAUACAGAAGGAGCGUGAUUUGUGUUACUCAUUCAUAUACAUGAGGAUCACCCAUGUCACAGGUAGGUCGCUGUAUUCGUA [JR_ExcArginiB_Sub022]	87.1
CACGGAUGAGUGGAUCACCCUCAUAAUAACCGAGGACCGGUACGGCCGCCACUCGAAAACCGUGACCUGUACGAAAAGUGCAGGA	782
AAAAGUAGGUCCAAUAAAACUACAUGUGAAGGAGCGCCCGAAAGGGCAGGUAGGUCGCACAUGAGGAUCACCCAUGUCCUACAAA [ArgEX 7 #OpenEnded]	86.1

Lab note: each sequence below needs its apparent KD of MS2 coat protein filled in.
1. ACAUGAGGAUCACCCAUGUCAGGGCACGAUACCAGCUGAUCCGGUGGCCCUUGGCAGCGUGACGAGUGGUCAUGAGGAUCACACG [?fmullin]
2. ACACCAUACAUGAGGAUCACCCAUGUUACACGAGGACCGGUACGGCCGCCACUCGAAUUCAGGAAACCUCGGAUAAUAUUGUGAA [JR_SS-TryptA_Sub001]
3. ACAUGAGGAUCACCCAUGUUUGUUGUUCCUCGAGGACCGGUACGGCCGCCACUCGAACGAGUGGCGCGCGCGCGCGCGCGCGCGC [aMa]
4. GGGCUCGGAGUGCGGCGUGUUCCGCUCCGUCGAGGACCGGUACGGCCGCCACUCGACAUGAGGAUCACCCAUGUCCGAGCGCGCG [#1 Exclusion - Tryptophan A Attempt #6 (HarryS)]
5. GCGAUGGAGCGAAGGAGCGUGCUGGUACAUGAGGAUCACCCAUGUGAACCGCAGCGCUAAGCACAGGUAGGUCGCGCUCCAUCGC [EAB NP+V+V2 #14]
6. AAGUGGCACGGAAGGAGCGAGUUUACCUAUUACAUGAGGAUCACCCAUGUGUAUAAUGGGACUCAGGUAGGUCGCCGUUGUCACU [Same State Arginine B GF 25]

1. 158
2. 32.4
3. 16.4
4. 51.4
5. 23
6. 44.3

Lab note: each sequence below needs its apparent KD of MS2 coat protein filled in.
1. AAAUAAAUACAUGAGGAUCACCCAUGUGAAGGAGCGCGCGUUAGCGCAGGUAGGUCGCACAUGAAUAACUCCGCGCGAAAGCGCA [MAT - Exclusion Arginine A - Mod of Eli - D11]
2. UUUUUCGUAGGUUAAAGUUUAGAAACUGAAGGAGCGUGGUAAUACACAGGUAGGUCGCAGAUUUUACAUGAGGAUCACCCAUGUU [JR_ExcArginiA_Sub012]

19.6
26.2

---

Task for the reader: assign each of the following sequences its reported apparent KD of K4 kissing-loop reporter.
Test system: K4 kissing-loop RNA reporter;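 note: bound reporter read as fluorescence of individual clusters on recovered sequencing chips by microscopy, with normalized cluster intensities fitted with a binding model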
Assay Info: apparent KD of K4 kissing-loop reporter; higher = weaker reporter binding
Measurement Parameters: Eterna round: R107; input ligand: arginine 13.2 mM
One number for each entry, in nM.

CUUAUGGAGUGUCGUACCGGACACUGGGAAGGAGCGCAAUUCUUUGCAGGUAGGUCGCCCAGUGAUGUUGGGUGGCGCUGUCGAA [Xebeor]	173

Lab note: each sequence below needs its apparent KD of K4 kissing-loop reporter filled in.
1. UGGGAUGUUAAAGGAUAUAGCAGGUGAUAUAAGAAAGUGAGUGAUGUUUAUGUAGAUGAUGAUAUGUUAGAAGGUUAACAAAACG [abcdefghi]
2. ACGUGCACCAGUGAUGUUGGAAAAUAUGAAGGAGCGGGAGAAAACCCAGGUAGGUCGCAUAAUUGCACGAGCCACGAAAGUGGCA [#15 K4 Arginine A Same State]
3. CAGCCUGGUCAGUGAUGUUGGCCGCAGGGAAAGGAUAUUGUGUUGGCAAGAAGGUUCGCUUGAUCGUUGGCCCAUGCAUGGGCCU [theeternabot_sameState_KL_FMN_A_44]

1: 258; 2: 93.7; 3: 180

Lab note: each sequence below needs its apparent KD of K4 kissing-loop reporter filled in.
1. AAAAUAAGCCAGUGAUGUUGGUGUCCAGAUACCAGCGACGAAAGUCGCCCUUGGCAGCUGUGGACGUACAAAAUAAGUACGUCCU
2. AACUUAAUUUAUAAGCAGUGAUGUUGCUCACGAGGACCGGUACGGCCGCCACUCGAUCGGACUUAGGUCUUCAAUUAUUUCAUUA [JR_ExcTryptoA_Sub017]
3. AAGUGUGUGGCGGCCGCCACUAGUAUCCAGUGAUGUUGGAGAUAUCACGUAAGUGAUAUCCAACAUAGGACCGGGCCAUAUAGAA [Same State - Tryptophan B (Freestyle 17)]

[760, 192, 78.3]

Lab note: each sequence below needs its apparent KD of K4 kissing-loop reporter filled in.
1. UGUACCGAGUCAGGAUAUGGUAUACCGGAAACGGACCAGUGAUGUUGGAGGCGAAAGCCAUAAAAUCCAGAAGGGACUUGGUACU [FmnBS 19 #SwitchBubble #StaticStem #DoubleMagnetSystem]
2. AAGUGUGUGGCGGCCGCCACUAGGAUCCAGUGAUGUUGGAGAUAUCUCGUAAGAGAUAUCCGCCAUAGGACCGGGCCAUAUAGAA [Same State - Tryptophan B (Freestyle 16)]
3. GGGAGUGAUGUUCCCGCGUUGACGGUCCUCCGAGGACCGGUACGGCCGCCACUCGAAACCCAGUGAUGUUGGGACUCACCGUACU [Exclusion Tryptophan A GF 11]
4. UCCAGCAGUACUGAUACCAGACUGCAUGUAGUGAUGUUGCAUAAGGGCAUAGAUGUCUCAGUCCCUUGGCAGCGGUACUGUUGCA [#09 K4 Theophylline B Same State]
5. UGUGGAGAAUAUGAUACCAGCAGAGAGAGAGAGGAAGUAUAGUGAUGUUAUAUGAGAGAAUGCCCUUGGCAGCAUAAGAAGAAGG [SSTheophylB.C]
6. GGCGGCCGCGCGCAAGCGCGGCCGGCCGAUACCAGCGCGACGGCGCGCCCUUGGCAGCGGCGCCGAGUGAUGUUCGGCCUGCCGG [#2 Same State - Theophylline A Attempt #16 (HarryS)]
7. AAGGUCACUGCUACAGUGAUGUUGUGGGAGCAGGAUAUGCAGAAAUGCAGAAGGGCUCGCUCCAGGUGACCGAAUGAAACAUUCA [whbob_SS_FMNA__2th175]
8. AUUCGUUUAUGUGAUACCAGACUUUGCAGUGAUGUUGCAUUUAUUUUUGAAUUUUAGUUUGUCCCUUGGCAGCACUAUUUAUUUA [JR_SSTheophyB_Sub005]

[569, 423, 504, 294, 119, 447, 826, 87.8]

Lab note: each sequence below needs its apparent KD of K4 kissing-loop reporter filled in.
1. GAGAGCCCUGUAGGAUAUGAGUCUAGUGAUGUUAGGCGGUCCAUGCGCGUGGCGCGUUAUGCCCUUUUAGAAGGACAGGGCUCUC [#2 Exclusion - FMN B Attempt #20 (HarryS)]
2. GUUACGCAUGGAAGGAGCGCGAAAAUUUAUAGUGAGUGAUGUUCACAAAUAAGAAUAAUAACGCAGGUAGGUCGCCAUGUGUAAC [Ex Arginine B K4 5]

[67.2, 86.8]

---

Task for the reader: assign each of the following sequences its reported apparent KD of MS2 coat protein.
Test system: MS2 coat protein
Assay Info: apparent KD of MS2 coat protein; designed switch direction (-1 OFF switch, 1 ON switch): -1; higher = weaker reporter binding
Measurement Parameters: Eterna round: R95; input ligand: microRNA oligo, concentration not stated
Answers are plain numbers, in nM.

Answered cases to consult:
UAUUAGUGAGGAUAUGAGUCGUAGAACAAUAGUACUACGUCUCAGAAGGCACAUGAGGAUCACCCAUGUUCCUU [Fiskers Ex 4 Super Stable 44 mod 35] (puzzle: Exclusion 4)	13.6
UUUAGUUCAGGAUAUGUAGAUUUUAACAUGAGGAUCACCCAUGUAGAUCCUGAAUUAACUACAGAAGGGAACAUUA [Exclusion 5: 2:d] (puzzle: Exclusion 5)	19.4
CUGAUGUCAGGAUAUCAGAAAAGGCGCAAGGACACGCCAAAUGAGAAGGGACAUGAGGAUCACCCAUGUAAAAC [Orata] (puzzle: Exclusion 4)	20.8
CUUGAAUAAGUGAGGAUAUACUGUUAGUAAUGAUUGUAGAAGGUACAUGAGGAUCACCCAUGUUUAUUCAUAAU [JR_BME4_Sub041] (puzzle: Brourd's mod of Exclusion 4)	17.5

Kindly review the next sequence as well.
Bench note: what apparent KD of MS2 coat protein did GGCGGUGCAGGAUAUUGAAAACUACACAUGAGGAUCACCCAUGUUCCUCACCGGUACAAGCAAGAAGGGCGGUGCA [Erxegetiis] (puzzle: Exclusion 5) show?
19.4
